B1: H2-Kb / B2 (parent)
chain 1: GEQVEQRPPHLSVREGDSAVIICTYTDPNSYYFFWYKQEPGAGLQLLMKVFSSTEINEGQGFTVLLNKKDKQLSLNLTAAHPGDSAVYFCAVSQMSNYNVLYFGSGTKLTVEP
chain 2: EAAVTQSPRNKVAVTGGKVTLSCNQTNNHNNMYWYRQDTGHGLRLIHYSYGAGSTEKGDIPDGYKASRPSQENFSLILELATPSQTSVYFCASGTGGSGQLYFGEGSKLTVL
chain 3: not shown
chain 4: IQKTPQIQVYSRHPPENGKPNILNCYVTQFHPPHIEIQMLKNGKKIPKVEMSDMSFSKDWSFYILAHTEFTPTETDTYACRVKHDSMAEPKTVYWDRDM
chain 5: SIINFEKL

Variants of: B1
Assay overview: % of reporter cells activated (NFAT-GFP), raw; further: test concentration or dose not given here
Particulars: with B2; scale: % of reporter cells activated
Mark each entry y if its ratio to parent sits below 1, and n for all others.

Q: Record chain 5 F5G : is its ratio to parent strictly below 1?
A: y

Q: Does the reported ratio to parent of the following variant sit strictly below 1? chain 5 F5M
A: n

Q: Strictly below 1: is that where ratio to parent of chain 5 K7A sits?
A: n

Q: Quick check: does chain 5 S1R have ratio to parent under 1?
A: n

Continuing:
Q: Is the reported ratio to parent for chain 5 E6D strictly below 1?
A: y

Q: Quick check: ratio to parent of chain 5 N4A under 1?
A: y

Q: Given chain 5 F5H , is recorded ratio to parent strictly lower than 1?
A: n

Q: # check: ratio to parent < 1 for chain 5 I2Q
A: y

Q: Decide: ratio to parent of chain 5 L8W strictly below 1?
A: n

Q: For this variant, is ratio to parent lower than 1? chain 5 K7S
A: n
